Target: Oxysterols receptor LXR-beta (Homo sapiens)
Sequence (P55055 whole entry): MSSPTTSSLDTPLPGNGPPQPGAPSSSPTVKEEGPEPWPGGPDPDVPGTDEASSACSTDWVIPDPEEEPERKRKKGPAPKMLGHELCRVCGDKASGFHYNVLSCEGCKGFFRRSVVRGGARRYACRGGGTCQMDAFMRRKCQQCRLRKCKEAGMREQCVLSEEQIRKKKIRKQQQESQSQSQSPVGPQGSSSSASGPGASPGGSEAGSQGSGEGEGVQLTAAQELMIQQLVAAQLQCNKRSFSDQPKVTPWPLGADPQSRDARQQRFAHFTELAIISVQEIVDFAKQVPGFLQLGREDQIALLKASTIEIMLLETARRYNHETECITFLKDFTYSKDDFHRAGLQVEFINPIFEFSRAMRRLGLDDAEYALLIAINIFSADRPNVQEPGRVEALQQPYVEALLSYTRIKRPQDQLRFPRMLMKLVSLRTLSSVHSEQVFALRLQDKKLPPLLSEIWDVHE
Test: HTRF Cofactor Peptide Recruitment Assay
Settings: pH 7.5; 22 °C
endpoint-name: EC50 (nM)
Give bare numbers, in nM.

Ask: Return reported EC50; argument: CC(C)(C)OC(=O)n1c(-c2ccc3c(c2)CC(NS(=O)(=O)c2ccccc2)C3)cc2ccccc21 (stereo unspecified)
Result: 210
